Molecular target: HIV-1 integrase (Human immunodeficiency virus type 1 group M subtype B, UniProt P12497)
Experiment: biochemical
Assay type: biochemical
Conditions: Table 10; strand transfer; read-out: IC50 (nM, ST)
Please go through the items and note down their IC50.
Value expressed in nM; do not type the unit.

Ask: Fill in the blank: the reported IC50 of O=C(NCc1ccc(F)cc1F)c1c(O)c2c(CO)ccnc2n(O)c1=O is ____.
Reply: 14.5

Ask: Fill in the blank: the reported IC50 of Nc1c(C(=O)NCc2ccc(F)cc2F)c(=O)n(O)c2ncc(CCC(=O)O)cc12 is ____.
Reply: 3.9

Ask: Fill in the blank: the reported IC50 of Nc1c(C(=O)NCc2ccc(F)cc2F)c(=O)n(O)c2ncc(CCS(=O)(=O)c3ccccc3)cc12 is ____.
Reply: 3.7

Ask: Fill in the blank: the reported IC50 of Nc1c(C(=O)NCc2ccc(F)cc2F)c(=O)n(O)c2ncc(CCS(=O)(=O)CCN3CCOCC3)cc12 is ____.
Reply: 2.5

Ask: Fill in the blank: the reported IC50 of C[C@@H]1CCO[C@H]2Cn3cc(C(=O)NCc4ccc(F)cc4F)c(=O)c(O)c3C(=O)N12 [DTG, dolutegravir, reference compound] is ____.
Reply: 12.4
